FYI, the data here is from the nanobody polyreactivity screen of Harvey et al. (2022).

# assaySummary: yeast display, Sf9 membrane polyspecificity reagent, FACS + sequencing; frameworks hold sequencing errors

residueSequence: QVQLVESGGGLVQAGGSLRLSCAASGRTFYTNTMGWYRQAPGKERELVAAISYSGSSTYYADSVKGRFTISRDNAKNTVYLQMNCLKPEDTAVYYCNAVRYYRYYYWGQGTQVTVSS
polyreactivity (PSR sort gate): low polyreactivity
//
residueSequence: QVQLVESGGGLVHAGGSLRLSCAASGSTYIFYAMGWYRQAPGKERELVPAITGGGSTYYADSVKGRFTISRDNAKNTVYLQMNSLKPEDTAVFYCARAEPYYSKSFSLGGYGYWGQGTKVTVSS
polyreactivity (PSR sort gate): low polyreactivity
